Assay Summary: AUC after administration at 2000 mg/kg/day in rats
Assay type: ADME, organism-based
Details: rat, plasma
Assay Endpoint: AUC

>>> reported("O=C(O)C(=O)c1cn(Cc2ccccc2)c2ccc(-c3ccc(OC(F)(F)F)cc3)cc12 [TIPLASININ]")
"~1510 µg·h/mL"

---

Assay Summary: Cmax after repeated oral dose of compound at 1 mg/kg in rats
Type: ADME, organism-based
Design: dose 1 mg/kg, route oral
Details: rat, in vivo
Assay Endpoint: Cmax (ng/mL)

>>> reported("O=C(O)C(=O)c1cn(Cc2ccccc2)c2ccc(-c3ccc(OC(F)(F)F)cc3)cc12 [TIPLASININ]")
230
